- Target under test: stearoyl-CoA desaturase (SCD) (Rattus norvegicus, UniProt P07308)
- Construct: The microsomes were quickly thawed and added to assay buffer so that a concentration of 0.4 mg/ml was achieved; from tissue
- Sequence (P07308 whole entry): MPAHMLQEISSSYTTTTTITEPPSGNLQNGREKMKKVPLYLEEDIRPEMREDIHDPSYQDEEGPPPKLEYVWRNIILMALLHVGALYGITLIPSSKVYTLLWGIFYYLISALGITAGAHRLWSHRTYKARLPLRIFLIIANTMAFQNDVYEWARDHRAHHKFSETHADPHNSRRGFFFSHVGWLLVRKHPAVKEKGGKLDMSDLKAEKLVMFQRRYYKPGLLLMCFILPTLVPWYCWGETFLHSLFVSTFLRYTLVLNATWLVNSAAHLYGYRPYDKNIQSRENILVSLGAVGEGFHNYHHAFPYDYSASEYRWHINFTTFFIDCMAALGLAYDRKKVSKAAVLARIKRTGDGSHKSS
- Run description: SCD assay with rat liver microsomes ([3H]stearoyl CoA, adapted from Talamo and Bloch)
- Assay type: biochemical
- Condition context: Table 2 (Example 21, procedures of Example 20); rat liver microsomes, [3H]stearoyl CoA substrate
pIC50: −log10 of the molar value.
Metric: pIC50

Example entries begin here.
[
  {
    "Compound": "O=C(NCCO)c1ccc2c(=O)n(Cc3ccc(Cl)cc3)cnc2c1 [compound 92]",
    "pIC50": 6.00
  },
  {
    "Compound": "O=C(Nc1ccc2ncn(Cc3ccc(Cl)c(Cl)c3)c(=O)c2c1)[C@@H](O)Cc1ccccc1 [compound 97]",
    "pIC50": 5.32
  },
  {
    "Compound": "O=C(CO)Nc1ccc2ncn(CCc3cccc(Cl)c3)c(=O)c2c1 [compound 38]",
    "pIC50": 5.24
  }
]

A. O=C(CO)Nc1ccc2ncn(Cc3ccc4ccccc4c3)c(=O)c2c1 [compound 31]
B. CC(=O)OCC(=O)Nc1ccc2ncn(Cc3ccc(F)c(F)c3)c(=O)c2c1 [compound 1]
query: From the recorded data, which exceeds the other in pIC50: A or B ? // output: label of the selected item
result: A

1. Cc1ccc(Cn2cnc3ccc(NC(=O)OCc4ccccc4)cc3c2=O)cc1C [compound 20]
2. O=C(Nc1ccc2ncn(CCCOc3ccccc3Cl)c(=O)c2c1)OCc1ccccc1 [compound 59]
query: From the recorded data, which exceeds the other in pIC50: 1 or 2 ? // output: label of the selected item
result: 2
(2: 7.35, 1: 6.64)
